Where these numbers come from: patent US20200079766A1

Quick list: IC50 per entry.
- measurement.target: recombinant human Meningioma Expressed Antigen 5 (MGEA5), also referred to as O-GlcNAcase (OGA) (Homo sapiens, UniProt O60502)
- Construct: Full length OGA enzyme was purchased at OriGene (cat # TP322411); purchased OriGene TP322411
- Sequence (O60502 whole entry): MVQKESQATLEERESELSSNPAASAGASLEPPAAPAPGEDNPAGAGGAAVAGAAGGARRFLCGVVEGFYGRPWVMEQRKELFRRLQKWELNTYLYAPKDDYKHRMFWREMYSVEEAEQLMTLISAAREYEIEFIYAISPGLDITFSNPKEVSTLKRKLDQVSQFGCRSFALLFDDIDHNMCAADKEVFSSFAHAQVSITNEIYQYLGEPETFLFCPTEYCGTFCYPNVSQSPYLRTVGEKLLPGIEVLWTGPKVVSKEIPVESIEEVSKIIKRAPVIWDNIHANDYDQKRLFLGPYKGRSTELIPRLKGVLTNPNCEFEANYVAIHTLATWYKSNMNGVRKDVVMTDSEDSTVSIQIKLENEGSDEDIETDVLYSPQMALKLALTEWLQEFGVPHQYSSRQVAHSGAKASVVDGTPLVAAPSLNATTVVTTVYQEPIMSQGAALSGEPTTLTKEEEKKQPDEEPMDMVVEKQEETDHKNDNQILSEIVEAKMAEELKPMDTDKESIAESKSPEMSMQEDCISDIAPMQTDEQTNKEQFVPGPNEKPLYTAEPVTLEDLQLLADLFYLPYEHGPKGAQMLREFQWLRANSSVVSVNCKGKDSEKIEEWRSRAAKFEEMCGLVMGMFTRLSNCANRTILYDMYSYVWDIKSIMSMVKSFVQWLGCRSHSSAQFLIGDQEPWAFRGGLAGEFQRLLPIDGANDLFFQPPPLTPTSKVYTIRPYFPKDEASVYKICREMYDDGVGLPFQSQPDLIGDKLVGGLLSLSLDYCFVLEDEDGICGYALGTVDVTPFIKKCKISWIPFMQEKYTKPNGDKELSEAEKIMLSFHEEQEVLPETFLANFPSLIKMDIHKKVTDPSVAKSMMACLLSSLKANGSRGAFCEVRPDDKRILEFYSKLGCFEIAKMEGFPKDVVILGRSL
- protocol.summary: OGA biochemical assay: inhibition of FM-GlcNAc hydrolysis, fluorescence; protocol A (10 nM OGA, 1 h) or protocol B (2 nM OGA, 6 h)
- assay.setup: Enzymatic protocol B (2 nM OGA, 6 h); read-out: Enzymatic hOGA; pIC50 (converted)
Please answer in the form of a number followed by its unit of measurement.

As a guide, the following entries are already answered.
CC(=O)Nc1ncc(CN2CCC[C@@H](Cc3cc(C)nc(C)c3)C2)s1 ... 8.71 nM
CC(=O)Nc1ncc(CN2CCC(Cc3ccc(C)c(C)n3)C2)s1 (stereo not drawn) ... 19.5 nM
CC(=O)Nc1ncc(CN2CC[C@H](Cc3cnc(C(=O)NC(C)(C)C)cn3)C2)s1 ... 22.4 nM

Input: Please look up its IC50: `CC(=O)Nc1ncc(CN2CC[C@H](Cc3nccc(C)c3C)C2)s1`
Output: 66.1 nM

Input: Please look up its IC50: `Cc1cc(O[C@@H]2CCCN(Cc3ccc4nccnc4c3)C2)cc(C)n1`
Output: 417 nM

Input: Please look up its IC50: `CC(=O)Nc1ncc(CN2CC[C@H](Cc3cc(C)nc(C)c3)C2)s1`
Output: 4.57 nM

Input: Please look up its IC50: CC(=O)Nc1ncc(CN2C[C@@H](F)C[C@@H](COc3cc(C)nc(C)n3)C2)s1 (racemic)
Output: 617 nM

Input: Please look up its IC50: `CC(=O)Nc1ncc(CN2CC[C@H](Cc3ccc(C#N)cn3)C2)s1`
Output: 21.9 nM

Input: Please look up its IC50: CC(=O)Nc1ncc(CN2CCC(Cc3cncnc3C)C2)s1 (stereo not drawn)
Output: 46.8 nM
